Listing: log10(MIC) of selected compounds
- Test system: Haemophilus influenzae
- assay.details: Minimum inhibitory concentration against Haemophilus influenzae GYR 1435 gram-negative strain
- Type: functional
metric: log10(MIC) (log10 of the value in µg/mL)

> print(dat)
                                    compound   target.or.test.system      metric  reported.measurement
 1       O=C(O)c1cnc2nc(N3CCC3)c(F)c(O)c2c1O  Haemophilus influenzae  log10(MIC)                  1.81
 2    COc1c(F)c(N2CCC2)nc2ncc(C(=O)O)c(O)c12  Haemophilus influenzae  log10(MIC)                  1.51
 3  NC1CCN(c2nc3ncc(C(=O)O)c(O)c3cc2F)C1 (stereo not given)  Haemophilus influenzae  log10(MIC)                  0.60
 4      O=C(O)c1cnc2nc(N3CCCC3)c(F)c(O)c2c1O  Haemophilus influenzae  log10(MIC)                  0.60
 5  C[C@H]1COc2c(N3CCN(C)CC3)c(F)cc3c(=O)c(C(=O)O)cn1c23.C[C@H]1COc2c(N3CCN(C)CC3)c(F)cc3c(=O)c(C(=O)O)cn1c23.O  Haemophilus influenzae  log10(MIC)                 -1.82
 6         O=C(O)c1cnc2nc(N3CCCC3)c(F)cc2c1O  Haemophilus influenzae  log10(MIC)                  0.00
 7          O=C(O)c1cnc2nc(N3CCC3)c(F)cc2c1O  Haemophilus influenzae  log10(MIC)                  0.00
 8  COc1c(F)c(N2CCC(N)C2)nc2ncc(C(=O)O)c(O)c12 (stereo not given)  Haemophilus influenzae  log10(MIC)                  1.81
 9   COc1c(F)c(N2CCCC2)nc2ncc(C(=O)O)c(O)c12  Haemophilus influenzae  log10(MIC)                  1.81
10  NC1CCN(c2nc3ncc(C(=O)O)c(O)c3c(O)c2F)C1 (stereo not given)  Haemophilus influenzae  log10(MIC)                  1.51
